Biological target: CYP2D6 (Homo sapiens, UniProt P10635)
Sequence (P10635 whole entry): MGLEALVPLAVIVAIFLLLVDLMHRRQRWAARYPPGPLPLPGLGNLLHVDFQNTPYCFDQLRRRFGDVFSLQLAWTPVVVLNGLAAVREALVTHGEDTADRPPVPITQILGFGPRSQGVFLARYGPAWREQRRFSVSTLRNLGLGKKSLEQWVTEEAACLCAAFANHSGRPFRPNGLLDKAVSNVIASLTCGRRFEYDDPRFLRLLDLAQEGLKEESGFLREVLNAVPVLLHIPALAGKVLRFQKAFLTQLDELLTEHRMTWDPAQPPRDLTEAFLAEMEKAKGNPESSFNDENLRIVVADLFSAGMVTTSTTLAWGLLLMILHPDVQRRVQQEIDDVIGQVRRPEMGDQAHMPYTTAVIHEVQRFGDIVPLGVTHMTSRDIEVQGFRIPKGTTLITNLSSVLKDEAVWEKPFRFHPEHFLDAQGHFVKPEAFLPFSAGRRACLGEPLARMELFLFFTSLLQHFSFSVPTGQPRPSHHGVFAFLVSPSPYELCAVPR
Test: Inhibition of CYP2D6 in human liver microsomes assessed as residual activity using dextromethorphan as substrate at 50 uM relative to control
Conditions: probe dextromethorphan
Measured parameter: activity at 50 µM (%)
Answers are plain numbers, in %.

So for NNc1nncc2ccccc12 [HYDRALAZINE] , the logged activity at 50 µM turned out to be 77

* * *

Target: CYP3A (Homo sapiens, UniProt P08684+P20815+P24462+Q9HB55)
Assay: in vitro
Details: liver microsomes, probe midazolam
Description: Inhibition of CYP3A in human liver microsomes assessed as residual activity using midazolam as substrate at 25 uM relative to control
Measured parameter: activity at 25 µM

Lab note: molecule NNc1nncc2ccccc12 [HYDRALAZINE] tested on CYP3A (Homo sapiens, UniProt P08684+P20815+P24462+Q9HB55); recorded activity at 25 µM was 98%
